# Test system: human lung cancer cells (EBC-1)
# method: Anti-proliferative effect on human lung cancer cells, sulforhodamine B method
# Type: cell-based
# testContext: EBC-1 cells
pIC50: −log10 of the molar value.
readoutName: pIC50

O=C(Nc1ccc(Oc2ccc(CCC(=O)N3CCN(Cc4ccc5c(c4)OCO5)CC3)cc2)nc1)c1ccc(C(F)(F)F)cc1	> 7.00

# next compound below
Enquiry: Please report the recorded pIC50 for `Cc1cc(N(C)CC(=O)N2CCN(Cc3ccc4c(c3)OCO4)CC2)ccc1Oc1ccc(NC(=O)c2ccc(C(F)(F)F)cc2)cn1` .
Return: > 7.00

###

melting point listing for selected compounds.

Observe how each entry below is paired with its result.
O=C(Nc1ccc(Oc2ccc(CCC(=O)N3CCN(c4cccnc4)CC3)cc2)cc1)c1ccc(Cl)c(Cl)c1	153 to 155 °C
O=C(Nc1ccc(Oc2ccc(N3CCN(Cc4ccccc4)C3=O)cc2)nc1)c1ccc(Cl)c(Cl)c1	186 to 187 °C
CCN(CC(=O)N1CCN(Cc2ccccc2)CC1)c1ccc(Oc2ccc(NC(=O)c3ccc(Cl)c(Cl)c3)cn2)c(C)c1	102 to 105 °C
CN(CC(=O)N1CCN(Cc2ccc3c(c2)OCO3)CC1)c1ccc(Oc2ccc(NC(=O)c3ccc(Cl)c(Cl)c3)cn2)c(F)c1	199 to 201 °C

Enquiry: Suppose we examine the compound `COc1ccc(CN2CCCN(c3ccc(Oc4ccc(NC(=O)c5ccc(Cl)c(Cl)c5)cn4)c(C)c3)C2=O)cc1OC` ; what melting point value has been reported?
Return: 117 to 118 °C

Enquiry: Give the measured melting point of `O=C(Nc1ccc(Oc2ccc(C3=CCN(C(=O)CN4CCOCC4)CC3)cc2)cc1)c1ccc(Cl)c(Cl)c1` .
Return: 195 to 197 °C

Enquiry: Item `Cc1cc(N(C)CC(=O)N2CCN(Cc3ccccc3)CC2)ccc1Oc1ccc(NC(=O)c2ccc(Cl)c(Cl)c2)cn1` has what recorded melting point?
Return: 111 to 113 °C

Enquiry: Quick check: melting point of `CC(=O)N(c1ccc(CCC(=O)N2CCN(Cc3ccc4c(c3)OCO4)CC2)cc1)c1ccc(NC(=O)c2ccc(Cl)c(Cl)c2)cn1` ?
Return: 150 to 165 °C
